- EXPERIMENT_SUMMARY: 5-MeO-DMT depletion and bufotenine formation in human CYP2D6 EM hepatocytes
- CONDITION_DESCRIPTION: human, human CYP2D6 EM (extensive metabolizer) hepatocytes, In vitro T1/2, EM hepatocytes 5; 5-MeO-DMT alone, 2 µM
RECORDED_ENDPOINT: half-life at 2 µM (min)
Return type: number; implicit unit min.

[ask] Which measured half-life at 2 µM value corresponds to COc1ccc2[nH]cc(CCN(C)C)c2c1 [5-MeO-DMT, 5-Methoxy-N,N-dimethyltryptamine] ?
[reply] 20.8

----------
- EXPERIMENT_SUMMARY: serum pharmacokinetics in wild-type FVB/N mice
- Assay type: in vivo
- CONDITION_DESCRIPTION: FVB/N (wild-type), mouse, serum, ip, 20 mg/kg
RECORDED_ENDPOINT: MRT (min)
Return type: number; implicit unit min.

[ask] Which measured MRT value corresponds to CN(C)CCc1c[nH]c2ccc(O)cc12 [Bufotenine, 5-hydroxy-N,N-dimethyltryptamine] ?
[reply] 55.8

[ask] Which measured MRT value corresponds to COc1ccc2[nH]cc(CCN(C)C)c2c1 ?
[reply] 27.2

----------
- TESTED_SYSTEM: CYP2D6.1 (Homo sapiens, UniProt P10635)
- Sequence (P10635 whole entry): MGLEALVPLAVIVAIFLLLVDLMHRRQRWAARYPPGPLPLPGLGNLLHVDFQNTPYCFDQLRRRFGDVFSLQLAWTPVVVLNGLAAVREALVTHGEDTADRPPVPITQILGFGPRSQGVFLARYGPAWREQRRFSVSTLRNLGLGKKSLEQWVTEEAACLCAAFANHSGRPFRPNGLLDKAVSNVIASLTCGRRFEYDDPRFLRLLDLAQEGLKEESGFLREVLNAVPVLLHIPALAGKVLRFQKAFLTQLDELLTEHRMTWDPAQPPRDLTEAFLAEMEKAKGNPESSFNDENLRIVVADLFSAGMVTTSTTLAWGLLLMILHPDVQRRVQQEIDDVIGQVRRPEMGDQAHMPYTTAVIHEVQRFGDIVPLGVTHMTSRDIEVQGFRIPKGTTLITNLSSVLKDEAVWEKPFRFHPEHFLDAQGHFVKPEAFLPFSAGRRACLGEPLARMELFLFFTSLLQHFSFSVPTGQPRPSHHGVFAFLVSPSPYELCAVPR
- EXPERIMENT_SUMMARY: bufotenine production from 5-MeO-DMT by recombinant CYP2D6.1
- Assay type: in vitro ADME
- CONDITION_DESCRIPTION: human, recombinant CYP2D6.1 reconstituted with P450 reductase, pH 7.4
RECORDED_ENDPOINT: Km at 5 min (µM)
Return type: number; implicit unit µM.

[ask] Which measured Km at 5 min value corresponds to COc1ccc2[nH]cc(CCN(C)C)c2c1 ?
[reply] 29.3

----------
- EXPERIMENT_SUMMARY: 5-MeO-DMT depletion and bufotenine formation in human CYP2D6 PM hepatocytes
- CONDITION_DESCRIPTION: human, human CYP2D6 PM (poor metabolizer) hepatocytes, In vitro CLint, PM hepatocytes 2; 5-MeO-DMT alone, 2 µM
RECORDED_ENDPOINT: hepatocyte CLint at 2 µM (µL/min/1e6 cells)
Return type: number; implicit unit µL/min/1e6 cells.

[ask] Which measured hepatocyte CLint at 2 µM value corresponds to COc1ccc2[nH]cc(CCN(C)C)c2c1 ?
[reply] 95.8

----------
- EXPERIMENT_SUMMARY: 5-MeO-DMT depletion and bufotenine formation in human CYP2D6 PM hepatocytes
- CONDITION_DESCRIPTION: human, human CYP2D6 PM (poor metabolizer) hepatocytes, In vitro T1/2, PM hepatocytes 1; 5-MeO-DMT alone, 2 µM
RECORDED_ENDPOINT: half-life at 2 µM
Reply with the number and its unit after it.

[ask] Which measured half-life at 2 µM value corresponds to COc1ccc2[nH]cc(CCN(C)C)c2c1 ?
[reply] 37.2 min

----------
- EXPERIMENT_SUMMARY: serum pharmacokinetics in Tg-CYP2D6
- Type: in vivo, mice
- CONDITION_DESCRIPTION: Tg-CYP2D6 mice; 2 mg/kg 5-MeO-DMT alone i.p.
RECORDED_ENDPOINT: clearance (mL/min/kg)
Return type: number; implicit unit mL/min/kg.

[ask] Which measured clearance value corresponds to COc1ccc2[nH]cc(CCN(C)C)c2c1 ?
[reply] 440

----------
- EXPERIMENT_SUMMARY: 5-MeO-DMT depletion and bufotenine formation in human CYP2D6 EM hepatocytes
- CONDITION_DESCRIPTION: human, human CYP2D6 EM (extensive metabolizer) hepatocytes, In vitro T1/2, EM hepatocytes 3; 5-MeO-DMT alone, 2 µM
RECORDED_ENDPOINT: half-life at 2 µM
Reply with the number and its unit after it.

[ask] Which measured half-life at 2 µM value corresponds to COc1ccc2[nH]cc(CCN(C)C)c2c1 ?
[reply] 25.4 min
